Hi there, I'd appreciate the recorded hERG current change (%, negative = inhibition) at 10uM for every entry that follows.
# target or test system: human ether-à-go-go-related gene (hERG) potassium channel (human, UniProt Q12809);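 note: peak tail current of the secondary pulse compared with the same well before compound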
# Sequence (Q12809 whole entry, looked up): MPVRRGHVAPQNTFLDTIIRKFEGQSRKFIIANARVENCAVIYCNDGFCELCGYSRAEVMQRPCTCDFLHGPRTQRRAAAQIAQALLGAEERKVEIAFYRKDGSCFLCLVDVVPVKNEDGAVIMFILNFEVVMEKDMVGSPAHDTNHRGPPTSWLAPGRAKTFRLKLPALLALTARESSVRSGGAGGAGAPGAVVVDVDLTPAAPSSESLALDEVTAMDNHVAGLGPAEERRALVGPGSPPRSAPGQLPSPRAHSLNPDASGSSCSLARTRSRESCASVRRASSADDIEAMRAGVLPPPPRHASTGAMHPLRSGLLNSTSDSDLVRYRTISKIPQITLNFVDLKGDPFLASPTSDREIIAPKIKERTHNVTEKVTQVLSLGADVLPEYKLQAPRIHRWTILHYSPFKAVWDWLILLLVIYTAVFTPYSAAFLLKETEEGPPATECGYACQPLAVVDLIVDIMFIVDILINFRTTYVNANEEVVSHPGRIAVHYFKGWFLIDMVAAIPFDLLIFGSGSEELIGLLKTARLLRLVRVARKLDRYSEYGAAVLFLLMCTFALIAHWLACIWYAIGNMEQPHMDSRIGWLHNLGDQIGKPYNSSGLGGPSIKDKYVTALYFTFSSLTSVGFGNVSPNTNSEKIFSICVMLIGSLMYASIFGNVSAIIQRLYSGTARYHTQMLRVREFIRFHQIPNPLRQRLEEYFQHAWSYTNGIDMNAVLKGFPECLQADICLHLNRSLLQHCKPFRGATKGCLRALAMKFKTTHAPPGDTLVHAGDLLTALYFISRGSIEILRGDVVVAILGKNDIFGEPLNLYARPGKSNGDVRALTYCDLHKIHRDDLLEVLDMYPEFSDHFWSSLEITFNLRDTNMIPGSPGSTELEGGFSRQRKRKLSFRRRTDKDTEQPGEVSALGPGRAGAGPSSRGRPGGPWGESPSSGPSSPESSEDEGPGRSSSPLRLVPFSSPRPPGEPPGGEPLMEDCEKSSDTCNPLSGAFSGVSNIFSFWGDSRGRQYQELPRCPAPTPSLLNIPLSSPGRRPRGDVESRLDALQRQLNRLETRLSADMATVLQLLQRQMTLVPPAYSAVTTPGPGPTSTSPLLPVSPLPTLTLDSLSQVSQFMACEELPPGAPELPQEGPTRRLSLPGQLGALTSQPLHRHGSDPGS
# method description: primary screen, population patch clamp on CHO cells stably expressing hERG; higher = less effect of the substance
The campaign covered roughly 310,000 compounds. About 14,000 (4.5%) showed an effect of 50% or more. Effects have a minus sign here. The full list was thinned out, with strong results kept by preference.
One number for each entry, in %.

Solved cases below.
- compound: "COc1ccc(N(CC(=O)NCC2CCCO2)S(=O)(=O)c2ccc(C)cc2)cc1OC (stereo not drawn)"
  obs value: -3.96
- compound: "Cc1ccc(C(=O)N/C(=C\\c2cn(C)c3ccccc23)C(=O)NCCCN2CCOCC2)cc1"
  obs value: 0.137
- compound: "CC(=O)c1c(C(C)=O)c(C)n(Cc2ccc3c(c2)OCO3)c1C"
  obs value: -9.41
- compound: "N#C/C(=C\\c1ccc(-c2ccccc2[N+](=O)[O-])o1)C(N)=O"
  obs value: 24.6
- compound: "O=c1ccc2cc(S(=O)(=O)N3CCN(c4ccc(Cl)cc4)CC3)ccc2o1"
  obs value: -52.8

Give one value of hERG current change (%, negative = inhibition) at 10uM per listed compound.
1. C/C=C\C=C\C(=O)N1CC2(CC(c3cccc(NC(=O)CC(c4ccccc4)c4ccccc4)c3)=NO2)C[C@H]1C(N)=O (stereo partly drawn)
2. O=c1ccc2cc(S(=O)(=O)N3CCOCC3)ccc2o1
3. Cc1ccc(C(=O)N/C(=C\c2ccco2)C(=O)NCCCN2CCOCC2)cc1C
4. CNC(=O)/C(C#N)=C/c1ccc(-c2ccccc2[N+](=O)[O-])o1

Reply |
1. 0.883
2. 4.83
3. -12.7
4. 8.72

---

Hi there, I'd appreciate the recorded hERG current change (%, negative = inhibition) at 10uM for every entry that follows.
# target or test system: human ether-à-go-go-related gene (hERG) potassium channel (human, UniProt Q12809);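 note: peak tail current of the secondary pulse compared with the same well before compound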
# method description: primary screen, population patch clamp on CHO cells stably expressing hERG; higher = less effect of the substance
In all, about 310,000 compounds went through this assay and about 14,000 (4.5%) showed an effect of 50% or more. The effect is printed as a negative number. The sample as a whole holds a higher share of strong results than the screen did.
Give bare numbers, in %.

Solved cases below.
- molecule: "CCOc1ccc(C(=O)NC2CC3CCCC(C2)N3CC(C)C)cc1 (stereo not drawn)"
  target or test system: "human ether-à-go-go-related gene (hERG) potassium channel (human, UniProt Q12809)"
  obs value: -41.1
- molecule: "Cc1ccc(C(=O)Nc2cccc(O)c2)cc1S(=O)(=O)N1CCCCCC1"
  target or test system: "human ether-à-go-go-related gene (hERG) potassium channel (human, UniProt Q12809)"
  obs value: 11.2
- molecule: "CC(CN1C(C)CCCC1C)OC(=O)c1ccccc1Cl (stereo not drawn)"
  target or test system: "human ether-à-go-go-related gene (hERG) potassium channel (human, UniProt Q12809)"
  obs value: -26.8

Give one value of hERG current change (%, negative = inhibition) at 10uM per listed molecule.
1. O=C(COC(=O)CCc1nc2ccccc2s1)NC(=O)NCc1ccco1
2. CC(=O)C(C)Oc1ccc2c3c(c(=O)oc2c1)CCCCC3 (stereo not drawn)
3. COCC1CCCCN1C(=O)c1ccc(OC2CCN(Cc3ccccn3)CC2)cc1 (stereo not drawn)
4. CCS(=O)(=O)N1CCC(C(=O)OCC(=O)c2ccc(Br)cc2)CC1

Reply |
-11.4
2.1
1.34
3.45

Give one value of hERG current change (%, negative = inhibition) at 10uM per listed molecule.
1. O=C(CSc1nc(O)c(Cc2ccccc2)c(=O)[nH]1)Nc1ccccc1
2. O=C(NCc1ccco1)C1CCCN(S(=O)(=O)c2cccc3cccnc23)C1 (stereo not drawn)

Reply |
1. 8.28
2. 0.148

Give one value of hERG current change (%, negative = inhibition) at 10uM per listed molecule.
1. Oc1cccc(Nc2ncnc3ccccc23)c1
2. CCN(Cc1ccccc1)C(=O)CSc1n[nH]c(N)n1

Reply |
1: 3.18; 2: 33.6

Give one value of hERG current change (%, negative = inhibition) at 10uM per listed molecule.
1. CC(=O)c1ccc(S(=O)(=O)N2CCCC(N(C)CCc3ccccn3)C2)cc1 (stereo not drawn)
2. CCCCCCNC(=O)c1c(O)c2ccccc2[nH]c1=O
3. COc1cc(C(=O)OC(C)CN2CCCCC2)cc(OC)c1OC.Cl (stereo not drawn)
4. CN(C)CCNC(=O)c1c(NC(=O)c2ccccc2)sc2c1CCCC2
5. Cc1cc(S(=O)(=O)N2CCCC(N(C)CCc3ccccn3)C2)c(C)s1 (stereo not drawn)
6. Cn1c(Br)nc2c1c(=O)n(CC(O)COc1ccccc1)c(=O)n2C (stereo not drawn)
7. CC(C)CC(=O)Nc1nc2c(c(=O)[nH]1)CCCC2
8. O=C1NCC(O)=C1C=NC12CC3CC(CC(C3)C1)C2 [4246017]

Reply |
1: -65.3; 2: 19.9; 3: -4.43; 4: -25.9; 5: -46.6; 6: -1.54; 7: 17.9; 8: 12.6

Give one value of hERG current change (%, negative = inhibition) at 10uM per listed molecule.
1. CN(C)c1ccc(/C=C2\C(=N)N3N=C(CC(=O)N4CCCC4)SC3=NC2=O)cc1Br
2. O=C(Nc1ccc(F)cc1F)c1cc(=O)n(-c2ccccc2)c(=O)[nH]1

Reply |
1. 4.09
2. 6.37
